- Test system: BALB/c 3T3 cells
- Design: key to the marks not given beside the values
Endpoint Name: focus formation ability (intensity of the tumor-promoting activity)

>>> result("[Cl-].[Cl-].[Zn+2] [Zinc chloride, zinc chloride]")
"+++"
>>> result("C=C(C)[C@@]12O[C@@]3(c4ccccc4)O[C@@H]1[C@@H]1[C@@H]4O[C@]4(CO)[C@@H](O)[C@]4(O)C(=O)C(C)=C[C@H]4[C@@]1(O3)[C@H](C)[C@H]2OC(=O)/C=C/C=C/c1ccccc1 [Mezerein, mezerein]")
"+++"
>>> result("CCC1(c2ccccc2)C(=O)NC(=O)NC1=O [Phenobarbital sodium, phenobarbital sodium]")
"++"

---

Focus formation in the BALB/c 3T3 cell transformation assay tested on BALB/c 3T3 cells: recorded values

>>> result("c1ccc2c(c1)ccc1c3ccccc3ccc21")
"−"
>>> result("OC[C@@H](O)[C@@H](O)[C@H](O)[C@H](O)CO")
"−"
>>> result("CC(C)[C@@H]1CC[C@@H](C)C[C@H]1O (racemic)")
"−"
>>> result("O=C1O[C@H]([C@@H](O)CO)C([O-])=C1O.[Na+] [Sodium ascorbate, sodium ascorbate]")
"−"
>>> result("[Na+].[Na+].[Na+].[O]=[V]([O-])([O-])[O-] [Sodium orthovanadate, sodium orthovanadate]")
"+"

Exercise: Please list Focus formation in the BALB/c 3T3 cell transformation assay recorded for the compound CCC1(c2ccccc2)C(=O)NC(=O)NC1=O [Phenobarbital sodium, phenobarbital sodium]
Key: +

Exercise: Please list Focus formation in the BALB/c 3T3 cell transformation assay recorded for the compound C=C1[C@@H](O)[C@@H]2O[C@]3(CC[C@H](/C=C/[C@@H](C)[C@@H]4CC(C)=C[C@@]5(O[C@H](C[C@@](C)(O)C(=O)O)CC[C@H]5O)O4)O3)CC[C@H]2O[C@@H]1[C@@H](O)C[C@H](C)[C@H]1O[C@@]2(CCCCO2)CC[C@H]1C
Key: +

Exercise: Please list Focus formation in the BALB/c 3T3 cell transformation assay recorded for the compound [Cl-].[Cl-].[Zn+2] [Zinc chloride, zinc chloride]
Key: +

Exercise: Please list Focus formation in the BALB/c 3T3 cell transformation assay recorded for the compound CCCCCCCCCCCCCC(=O)O[C@@H]1[C@@H](C)[C@@]2(O)[C@@H](C=C(CO)C[C@]3(O)C(=O)C(C)=C[C@@H]23)[C@@H]2C(C)(C)[C@]12OC(C)=O [TPA, phorbol 12-myristate 13-acetate]
Key: +

---

ability to form foci in the BALB/c 3T3 cell transformation assay tested on BALB/c 3T3 cells: recorded values

Answered cases to consult:
>>> result("c1ccc2c(c1)ccc1c3ccccc3ccc21")
"unable to form foci"
>>> result("CC(C)[C@@H]1CC[C@@H](C)C[C@H]1O (racemic)")
"unable to form foci"
>>> result("C=C1[C@@H](O)[C@@H]2O[C@]3(CC[C@H](/C=C/[C@@H](C)[C@@H]4CC(C)=C[C@@]5(O[C@H](C[C@@](C)(O)C(=O)O)CC[C@H]5O)O4)O3)CC[C@H]2O[C@@H]1[C@@H](O)C[C@H](C)[C@H]1O[C@@]2(CCCCO2)CC[C@H]1C")
"able to form foci"
>>> result("C=C(C)[C@@]12O[C@@]3(c4ccccc4)O[C@@H]1[C@@H]1[C@@H]4O[C@]4(CO)[C@@H](O)[C@]4(O)C(=O)C(C)=C[C@H]4[C@@]1(O3)[C@H](C)[C@H]2OC(=O)/C=C/C=C/c1ccccc1")
"able to form foci"
>>> result("C[C@H](CCC(=O)O)[C@H]1CC[C@H]2[C@@H]3CC[C@@H]4C[C@H](O)CC[C@]4(C)[C@H]3CC[C@]12C")
"able to form foci"
>>> result("c1ccc2cc3c(ccc4ccccc43)cc2c1 [Benz[a]anthracen, benz[a]anthracene]")
"unable to form foci"
>>> result("O=C1NS(=O)(=O)c2ccccc21.[Na] [Saccharin sodium, saccharin sodium]")
"able to form foci"
>>> result("CCC1(c2ccccc2)C(=O)NC(=O)NC1=O [Phenobarbital sodium, phenobarbital sodium]")
"able to form foci"

Attention now turns to another entry.
Exercise: Report measured ability to form foci in the BALB/c 3T3 cell transformation assay on BALB/c 3T3 cells; entry: O=[As]O [Sodium arsenite, sodium arsenite]
Key: able to form foci
